B1: tRNA (parent)
chain: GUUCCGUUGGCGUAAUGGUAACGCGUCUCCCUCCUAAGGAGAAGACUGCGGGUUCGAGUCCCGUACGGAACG

- Variants of: B1
- PROCEDURE_TEXT: yeast fitness relative to wild type (ratio to wild type); higher = fitter; tRNA-Arg(CCU), competitive growth, 37 C, YPD
Fewer inactive variants are shown than the library holds.
MEASURED_PROPERTY: yeast fitness

Below, each entry is followed by its recorded yeast fitness result.
- MUTATIONS: "U2A C5U"
  yeast fitness: 0.906
- MUTATIONS: "A15C C31A A37U"
  yeast fitness: "≤ 0.5"

Record yeast fitness for all entries; do not skip any.
1. C4U C24G A37G
2. U3C C5G C34A A37U G44A G51A C55A
3. G9A C22G
4. U32C A37U G52A C66A
5. G9A A14U C29G C34A U54A
6. U13A A20G A21U A40U
7. G9A C24A G38A
8. U28A C29G C31U G68A

Ans:
1: 0.567; 2: ≤ 0.5; 3: 0.869; 4: ≤ 0.5; 5: ≤ 0.5; 6: ≤ 0.5; 7: ≤ 0.5; 8: 0.547
